biological target: Bovine pancreatic phospholipase A₂ (PLA), native (Bos taurus)
Sequence (P00593 23-145): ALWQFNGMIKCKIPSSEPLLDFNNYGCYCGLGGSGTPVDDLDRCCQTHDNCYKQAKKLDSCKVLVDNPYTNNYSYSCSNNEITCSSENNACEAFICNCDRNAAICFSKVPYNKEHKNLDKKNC
assayReadout: pKd
Expect pKd as a plain number equal to -log10 of the molar concentration.

QUERY: Name the reported pKd value associated with the molecule CCCCCCCC/C=C\CCCCCCCCOP(=O)([O-])OCC[N+](C)(C)C [cis-9-octadecenylphosphocholine]
RESULT: 3.18

* * *

target: Bovine pancreatic phospholipase A₂, AMPA (fully ε-amidinated PLA) (Bos taurus, UniProt P00593)
Sequence (P00593 23-145): as above
assayReadout: pKd
Expect pKd as a plain number equal to -log10 of the molar concentration.

QUERY: Name the reported pKd value associated with the compound CCCCCCCC/C=C\CCCCCCCCOP(=O)([O-])OCC[N+](C)(C)C [cis-9-octadecenylphosphocholine]
RESULT: 2.49

* * *

assayReadout: Kd (µM)
Unit µM implied. Number only.

QUERY: Fill in the recorded Kd for this compound, with Porcine pancreatic phospholipase A₂, [ε-Ol-Lys¹¹⁶]-AMPA (Sus scrofa, UniProt P00592) as test system: CCCCCCCC/C=C\CCCCCCCCOP(=O)([O-])OCC[N+](C)(C)C [cis-9-octadecenylphosphocholine]
Sequence (P00592 23-146): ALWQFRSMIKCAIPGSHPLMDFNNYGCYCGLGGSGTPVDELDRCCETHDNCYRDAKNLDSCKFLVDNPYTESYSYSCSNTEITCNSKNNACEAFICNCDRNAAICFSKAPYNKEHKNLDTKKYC
RESULT: 18

* * *

assayReadout: pKd
Expect pKd as a plain number equal to -log10 of the molar concentration.

QUERY: Fill in the recorded pKd for this molecule, with Porcine pancreatic phospholipase A₂, [ε-Lau-Lys¹¹⁶]-AMPA (Sus scrofa) as test system: CCCCCCCC/C=C\CCCCCCCCOP(=O)([O-])OCC[N+](C)(C)C [cis-9-octadecenylphosphocholine]
RESULT: 4.54

* * *

molecular target: Porcine pancreatic phospholipase A₂, [ε-Pal-Lys¹¹⁶]-AMPA (Sus scrofa, UniProt P00592)
assayReadout: Kd (µM)
Unit µM implied. Number only.

QUERY: Fill in the recorded Kd for this compound, with Porcine pancreatic phospholipase A₂, [ε-Pal-Lys¹¹⁶]-AMPA (Sus scrofa, UniProt P00592) as test system: CCCCCCCC/C=C\CCCCCCCCOP(=O)([O-])OCC[N+](C)(C)C [cis-9-octadecenylphosphocholine]
RESULT: 12

Taken from patent EP0311163A2.
